Values from patent US20150203579A1

Target under test: T1, dimeric biotinylated human PD-1 protein with a C-terminal human Fc tag (human, biotinylated (sites not given))
T1 construct: also called biot-hPD-1-hFc
Protocol description: competition ELISA: 200 pM biot-hPD-1-hFc to coated hPD-L1-mFc
Attribute measured: % blocking at 50 nM antibody (%)
Use % as the unit, but write only the number.

Past entries and their recorded results:
[[record]]
binder = "H1M7799N (antibody, V domains shown, human variable regions, mouse IgG1 Fc) VH: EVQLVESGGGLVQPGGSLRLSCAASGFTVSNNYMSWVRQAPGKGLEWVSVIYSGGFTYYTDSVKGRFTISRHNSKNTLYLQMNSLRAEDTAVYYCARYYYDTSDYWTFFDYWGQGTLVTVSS VL: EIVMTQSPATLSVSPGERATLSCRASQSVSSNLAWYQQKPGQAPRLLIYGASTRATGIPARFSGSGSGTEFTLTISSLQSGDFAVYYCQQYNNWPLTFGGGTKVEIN"
attribute_measured = "% blocking at 50 nM antibody"
observed_value = 100

[[record]]
binder = "H2aM7796N (antibody, V domains shown, human variable regions, mouse IgG2a Fc; also called H2M7796N) VH: QVQLVESGGGVVQPGRSLRLSCAASGFTFSSYGMHWVRQAPGKGLEWVAIIWSDGDSEYNLDSVKGRFTISRDNSKNTLYLQMNSLRVEDSAVYYCARDRDLEDIWGQGTMVTVSS VL: DIQMTQSPSSLSASVGDRVTITCRASQGIRNDLGWYQQKPGKAPKRLIYAASNLQSGVPSRFSGSGSGTEFTLTISSLQPEDFATYYCLQHNSYPLTFGGGTKVEIK"
attribute_measured = "% blocking at 50 nM antibody"
observed_value = 60

[[record]]
binder = "H2aM7798N (antibody, V domains shown, human variable regions, mouse IgG2a Fc; also called H2M7798N) VH: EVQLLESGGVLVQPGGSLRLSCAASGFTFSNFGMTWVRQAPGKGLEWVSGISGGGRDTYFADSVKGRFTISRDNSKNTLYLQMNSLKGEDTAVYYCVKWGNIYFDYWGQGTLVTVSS VL: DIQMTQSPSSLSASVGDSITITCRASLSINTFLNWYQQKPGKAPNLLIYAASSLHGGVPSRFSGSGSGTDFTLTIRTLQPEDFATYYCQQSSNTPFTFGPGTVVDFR"
attribute_measured = "% blocking at 50 nM antibody"
observed_value = 100

[[record]]
binder = "H2aM7780N (antibody, V domains shown, human variable regions, mouse IgG2a Fc; also called H2M7780N) VH: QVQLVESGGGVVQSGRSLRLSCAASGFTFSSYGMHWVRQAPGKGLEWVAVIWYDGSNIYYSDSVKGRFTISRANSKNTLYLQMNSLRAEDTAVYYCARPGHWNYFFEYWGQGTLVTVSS VL: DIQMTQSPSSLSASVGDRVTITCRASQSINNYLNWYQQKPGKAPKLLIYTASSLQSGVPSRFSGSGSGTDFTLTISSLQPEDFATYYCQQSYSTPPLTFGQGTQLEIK"
attribute_measured = "% blocking at 50 nM antibody"
observed_value = 100


// moving on: another record for % blocking at 50 nM antibody
// query Sample H1M7800N (antibody, V domains shown, human variable regions, mouse IgG1 Fc) VH: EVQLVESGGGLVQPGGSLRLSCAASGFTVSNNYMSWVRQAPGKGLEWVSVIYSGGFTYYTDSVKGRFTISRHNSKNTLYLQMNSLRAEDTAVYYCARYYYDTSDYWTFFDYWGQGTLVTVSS VL: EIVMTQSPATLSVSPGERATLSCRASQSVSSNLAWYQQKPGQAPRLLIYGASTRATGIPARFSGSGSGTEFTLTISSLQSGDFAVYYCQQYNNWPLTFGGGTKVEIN — what was its % blocking at 50 nM antibody?
// result 99
